measurement notes: NCI Yeast Anticancer Drug Screen. Data for the mlh1 rad18 strain (AID 175)
condition notes: S. cerevisiae mlh1 rad18 strain growth inhibition; at 50.0 µM; active compounds read high
Compounds without any hit were thinned out: in the full panel of roughly 79,000, 15% have a hit. Calls of active or inactive are those of the source. Rule as the data show it: active = growth inhibition above about 70%; inactive = the rest.
result type: growth inhibition

Use these answered entries as a reference point.
compound | growth inhibition
COc1cc(C2c3cc4c(cc3OC(C)(N3CCCC3)C2C)OCO4)cc(OC)c1OC (stereo not given) | 0.25% (inactive)
Nc1nc(Cc2ccccc2)cc(-c2cc(Cc3ccccc3)nc(N)n2)n1 | 1.7% (inactive)
CN(C)c1c(F)c(F)c(N=Nc2ccccc2)c(F)c1F | -12.1% (inactive)
CCOC(=O)NC(=O)c1cn(CCN2CCN(c3ncnc4nc[nH]c34)CC2)c(=O)[nH]c1=O | 23.1% (inactive)

Prompt line: Identify growth inhibition associated with the compound COc1ccc(CSCc2cc(OC)c(OC)c(OC)c2)cc1
Response line: -2.15% (inactive)
